- System: Escherichia coli
- assay.procedure: Antibacterial activity against Escherichia coli J53 transconjugated with Klebsiella pneumoniae isolate VA367 containing blaKPC-3, qnrB19, blaTEM-1, blaSHV-11, aac(6')-1b genes by Etest method
- Format: functional
Here, each record is paired with measured MIC data.
property.label: MIC (µg/mL)

# molecule, assay.target, endpoint.value
records = [
    ("C[C@@H](O)[C@H]1C(=O)N2C(C(=O)O)=C(S[C@@H]3CN[C@H](C(=O)Nc4cccc(C(=O)O)c4)C3)[C@H](C)[C@H]12", "Escherichia coli", 2),
    ("CN(C)c1cc(NC(=O)CNC(C)(C)C)c(O)c2c1C[C@H]1C[C@H]3[C@H](N(C)C)C(O)=C(C(N)=O)C(=O)[C@@]3(O)C(O)=C1C2=O [TIGECYCLINE]", "Escherichia coli", 0.5),
    ("C[C@@H](O)[C@H]1C(=O)N2C(C(=O)O)=C(S[C@@H]3CN[C@H](C(=O)N(C)C)C3)[C@H](C)[C@H]12 [MEROPENEM]", "Escherichia coli", 4),
    ("C[C@H]1COc2c(N3CCN(C)CC3)c(F)cc3c(=O)c(C(=O)O)cn1c23.C[C@H]1COc2c(N3CCN(C)CC3)c(F)cc3c(=O)c(C(=O)O)cn1c23.O [LEVOFLOXACIN]", "Escherichia coli", 0.75),
    ("C[C@@H](O)[C@H]1C(=O)N2C(C(=O)O)=C(SCCNC=N)C[C@H]12 [IMIPENEM ANHYDROUS]", "Escherichia coli", 4),
]

----------
- Tested on: Escherichia coli
- assay.procedure: Antibacterial activity against Escherichia coli J53 transconjugated with Klebsiella pneumoniae isolate VA375 containing qnrA1, blaTEM-1, blaSHV-11genes by CLSI method
- Assay type: functional
Here, each record is paired with measured MIC data.
property.label: MIC

# compound, assay.target, property.label, endpoint.value
data = [
    ("CO/N=C(\\C(=O)N[C@@H]1C(=O)N2C(C(=O)O)=C(COC(N)=O)CS[C@H]12)c1ccco1", "Escherichia coli", "MIC", "≥ 64 µg/mL"),
    ("NC[C@H]1O[C@H](O[C@H]2[C@H](O)[C@@H](O[C@H]3O[C@H](CO)[C@@H](O)[C@H](N)[C@H]3O)[C@H](N)C[C@@H]2N)[C@H](N)C[C@@H]1O", "Escherichia coli", "MIC", "4 µg/mL"),
    ("C[C@@H](O)[C@H]1C(=O)N2C(C(=O)O)=C(S[C@@H]3CN[C@H](C(=O)N(C)C)C3)[C@H](C)[C@H]12", "Escherichia coli", "MIC", "≤ 0.25 µg/mL"),
    ("CC(C)(O/N=C(\\C(=O)N[C@@H]1C(=O)N2C(C(=O)[O-])=C(C[n+]3ccccc3)CS[C@H]12)c1csc(N)n1)C(=O)O", "Escherichia coli", "MIC", "≥ 64 µg/mL"),
    ("CO/N=C(\\C(=O)N[C@@H]1C(=O)N2C(C(=O)O)=C(CSc3nc(=O)c(O)nn3C)CS[C@H]12)c1csc(N)n1", "Escherichia coli", "MIC", "8 µg/mL"),
    ("NCC[C@H](O)C(=O)N[C@@H]1C[C@H](N)[C@@H](O[C@H]2O[C@H](CN)[C@@H](O)[C@H](O)[C@H]2O)[C@H](O)[C@H]1O[C@H]1O[C@H](CO)[C@@H](O)[C@H](N)[C@H]1O", "Escherichia coli", "MIC", "≤ 2 µg/mL"),
    ("O=C1CN(/N=C/c2ccc([N+](=O)[O-])o2)C(=O)N1", "Escherichia coli", "MIC", "≤ 16 µg/mL"),
    ("CCN1CCN(C(=O)N[C@@H](C(=O)N[C@@H]2C(=O)N3[C@@H]2SC(C)(C)[C@@H]3C(=O)O)c2ccccc2)C(=O)C1=O", "Escherichia coli", "MIC", "≥ 128 µg/mL"),
    ("C[C@@H](O)[C@H]1C(=O)N2C(C(=O)O)=C(SCCNC=N)C[C@H]12 [IMIPENEM ANHYDROUS]", "Escherichia coli", "MIC", "≤ 1 µg/mL"),
]
